Data origin, for the record: patent US20250281467A1

# ASSAYED_SYSTEM: KCC2 (Homo sapiens)
# Sequence (Q9H2X9 whole entry, species assumed): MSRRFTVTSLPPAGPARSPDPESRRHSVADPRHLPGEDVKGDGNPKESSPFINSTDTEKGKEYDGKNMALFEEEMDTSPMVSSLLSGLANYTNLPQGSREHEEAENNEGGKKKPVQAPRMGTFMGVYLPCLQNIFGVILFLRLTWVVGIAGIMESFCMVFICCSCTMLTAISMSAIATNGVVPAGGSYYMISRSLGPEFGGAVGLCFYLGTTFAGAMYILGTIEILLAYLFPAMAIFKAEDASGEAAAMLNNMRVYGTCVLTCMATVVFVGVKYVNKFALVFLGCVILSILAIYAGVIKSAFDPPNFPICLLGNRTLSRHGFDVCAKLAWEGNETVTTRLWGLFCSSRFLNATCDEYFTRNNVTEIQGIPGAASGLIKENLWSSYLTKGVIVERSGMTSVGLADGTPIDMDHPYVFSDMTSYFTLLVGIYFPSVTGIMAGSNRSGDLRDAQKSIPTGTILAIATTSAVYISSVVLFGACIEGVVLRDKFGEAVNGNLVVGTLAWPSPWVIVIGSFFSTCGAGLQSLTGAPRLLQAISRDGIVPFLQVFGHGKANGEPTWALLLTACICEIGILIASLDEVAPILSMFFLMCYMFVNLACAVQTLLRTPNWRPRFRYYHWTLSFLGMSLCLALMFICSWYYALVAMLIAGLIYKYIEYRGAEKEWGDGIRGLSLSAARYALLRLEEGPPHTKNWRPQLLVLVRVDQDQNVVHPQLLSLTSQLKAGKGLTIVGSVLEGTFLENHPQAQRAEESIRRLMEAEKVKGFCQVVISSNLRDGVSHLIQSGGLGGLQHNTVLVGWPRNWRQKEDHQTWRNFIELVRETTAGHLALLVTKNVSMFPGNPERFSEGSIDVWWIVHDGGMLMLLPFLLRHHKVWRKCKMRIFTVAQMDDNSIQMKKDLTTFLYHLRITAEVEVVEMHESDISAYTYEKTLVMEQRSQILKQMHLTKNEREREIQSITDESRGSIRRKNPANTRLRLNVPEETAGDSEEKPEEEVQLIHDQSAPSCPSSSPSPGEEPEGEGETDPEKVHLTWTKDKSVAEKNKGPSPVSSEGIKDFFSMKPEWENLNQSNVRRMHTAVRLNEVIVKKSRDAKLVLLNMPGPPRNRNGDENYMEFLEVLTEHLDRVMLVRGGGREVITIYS
# PROTOCOL_DESCRIPTION: inhibitory activity measured in vitro on KCC2
# Type: biochemical
# CONDITIONS_USED: in vitro on KCC2; read-out: IC50
pIC50: −log10 of the molar value.
So basically: pIC50 at 6 or higher? That is criterion met. Lower than 6? That is criterion not met.

MOLECULE: CC(=O)N1CCCC1(Cc1ccccc1)C(=O)N(C)Cc1ccccc1 (stereo not drawn)
GROUP: criterion not met

INPUT: Textbook exercise: given the entry CC(=O)N1CCCC1(Cc1ccc(Cl)cc1)C(=O)OCc1ccccc1 (stereo not drawn) , state whether its pIC50 is greater than or equal to 6.
OUTPUT: criterion met
